test system: THRa homodimer (NR concentration 90 nM); test: PBM binding z-score (relative to random genomic background probes); higher = stronger binding; sequences stand for … in GC…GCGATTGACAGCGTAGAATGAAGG
endpoint-label: PBM binding z-score

* ACTATTGGTTGAGACGAGGGCAACCGATAGGTTG | 0.731
* ACTTACGGGTCAACGATGTTATAGCACGCGTATA | 0.387
* ACTTACGGGTCAGCGAGGTTATAGCACGCGTATA | 1.06
* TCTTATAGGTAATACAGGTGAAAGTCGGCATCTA | 0.611
* GCAGAAAGGTGAAACGCAGGTAACTCAGGGTGGC | -0.396
* GCAGACAGGGGAAACGCAGGTAACTCAGGGTGGC | -0.308
* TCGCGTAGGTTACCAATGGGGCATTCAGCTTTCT | -0.509
* TCGAGTAAGTTAGGGGCATTCAGAATGGCGTCGA | -0.16
* TCATATAGGTAAATGCTAGGCGAAAGTCCGATCT | 0.0597
* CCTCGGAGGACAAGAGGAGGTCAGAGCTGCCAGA | 0.679
* TCACATAGGTAATACAGGTGAAAGTCGGCATCTA | -0.0751
* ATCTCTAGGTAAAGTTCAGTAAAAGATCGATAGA | 0.183
* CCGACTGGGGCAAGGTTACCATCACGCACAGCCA | 0.274
* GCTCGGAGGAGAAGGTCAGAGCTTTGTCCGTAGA | -0.793
* AGTCAAAGTTCACTAGGTAACGAAAGATTCAGCT | 0.1
* TCGAGTAGGTCACCAATGGGGCATTCAGCTTTCT | -0.0324
* CCTACTGGGCCAAAAAGGTCACTGATGCCGATAA | 0.702
* TCGAGTATGTTACCAATGGGGCATTCAGCTTTCT | -0.731
* AGCTCTAGGTAAAGTTCAGTGAAAGATCGATAGA | -0.0509
* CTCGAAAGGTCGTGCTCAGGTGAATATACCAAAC | 1.6
* CATTACGGGTCACTGACAGGTTATAGCATTTGGA | 0.716
* ACTCGCAGGCCAAGTTTGGGTCACTCAAACAAAG | 1.1
* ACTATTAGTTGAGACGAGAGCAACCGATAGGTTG | -0.555
* CAAACTAGGTCACGAAAGGCCAAAGTCGAATGAC | 1.52
* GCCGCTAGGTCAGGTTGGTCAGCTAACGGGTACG | 0.524
* GGAACGAAGGCAAGTTGATAGCAGAGTTTGATGG | -1.3
* TCGTGTAGATCAAGCAGGTTAAGAAAGCCTGAGT | -0.744
* ATATGTTGGTTACATCCGGGTCATTCAGGCTATG | 2.45
* GCATATAGGTAATACAAGGTGAAAGTACGATTGT | 0.806
* CGTCAAAGTTCAACTAAGGTGACGTAAAGCACGC | 1.95
* TTAGACAGGTGAAGGTAACTCAGGTACGCAGTCG | 0.377
* CCTACTGGGCCATTCAAAGGTCATTGATCATATG | 0.994
* ATATGTAGGTTACATCCGTGTCATTCAGGCTATG | 0.344
* TATGCTAGGTCAGTTGGTCAGCTAACGAGCTGCC | 0.034
* CCAACTGGGGCAGAAAGGTTACCATACCATCCGG | 0.0988
* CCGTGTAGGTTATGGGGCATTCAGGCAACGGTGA | 0.635
* CAACCTAGGTCACAGAGGTCAAAGTCCGTGCGTA | 3.1
* TCATATAGGTAAAGGTGAAAGACGAACGATATGA | -0.601
* GATACAGGGTCAGCTAGGGGCCAGAGTATGGAAA | 0.639
